- tested-target: T1, human soluble urokinase plasminogen activator receptor (suPAR) (human, UniProt Q03405 23-303, limits assumed)
- T1 construct: Target antigen of the scFv off-rate screen; also called hsuPAR; human suPAR
- T1 sequence (Q03405 23-303 limits assumed): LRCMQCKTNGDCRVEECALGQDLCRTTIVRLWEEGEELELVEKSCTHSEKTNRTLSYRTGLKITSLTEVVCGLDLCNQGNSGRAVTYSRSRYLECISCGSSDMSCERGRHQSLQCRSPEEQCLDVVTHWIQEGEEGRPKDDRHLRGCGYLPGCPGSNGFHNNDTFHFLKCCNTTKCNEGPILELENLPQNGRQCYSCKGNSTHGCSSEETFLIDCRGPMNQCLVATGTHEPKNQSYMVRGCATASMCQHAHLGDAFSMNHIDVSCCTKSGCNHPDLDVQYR
- measurement-description: BLI (Octet) off-rate screen of scFv clones
Rule: label 1 for koff not less than 0.005 s⁻¹, label 0 for anything less.

Asked: Kindly determine if koff recorded for suPAR_DB06_E04 (scFv, V domains shown) VH: QVQLVQSGAEVKKPGASVKVSCKASGDTFSSYYMHWVRQAPGQGLEWMGWIDHENGNTIYDQKFQGRVTMTRDTSTSTVYMELSSLRSEDTAVYYCARGYDMDWFVYWGQGTLVTVSS VL: DIQMTQSPSSLSASVGDRVTITCRARSSVSYMYWYQQKPGKAPKLLIYRTSNLQSGVPSRFSGSGSGTDFTLTISSLQPEDFATYYCQQYHSYPPTFGGGTKVEIK is above or exactly 0.005 s⁻¹.
Given back: label 1

---
Asked: Given the entry suPAR_DB06_C05 (scFv, V domains shown) VH: QVQLVQSGAEVKKPGASVKVSCKASGGTFSSYAISWVRQAPGQGLEWMGVIDPSGGTTDYAQKFQGRVTMTRDTSTSTVYMELSSLRSEDTAVYYCARGYDVDWFVYWGQGTLVTVSS VL: DIQMTQSPSSLSASVGDRVTITCRTSQSISSFLNWYQQKPGKAPKLLIYDVSHLESGVPSRFSGSGSGTDFTLTISSLQPEDFATYYCQQYHSYPPTFGGGTKVEIK , answer whether its koff meets or surpasses 0.005 s⁻¹.
Given back: label 1

Asked: Decide: koff of suPAR_DB06_E06 (scFv, V domains shown) VH: QVQLVQSGAEVKKPGASVKVSCKASGDTSTSYYMHWVRQAPGQGLEWMGWIDHENGSTIYDQKFQGRVTMTRDTSTSTVYMELSSLRSEDTAVYYCARGYDVDWFVYWGQGTLVTVSS VL: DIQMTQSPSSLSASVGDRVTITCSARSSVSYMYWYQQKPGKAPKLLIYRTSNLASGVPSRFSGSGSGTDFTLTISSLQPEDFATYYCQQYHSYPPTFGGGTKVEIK >= 0.005 s⁻¹?
Given back: label 0

Asked: Assess whether reported koff for suPAR_DB06_F07 (scFv, V domains shown) VH: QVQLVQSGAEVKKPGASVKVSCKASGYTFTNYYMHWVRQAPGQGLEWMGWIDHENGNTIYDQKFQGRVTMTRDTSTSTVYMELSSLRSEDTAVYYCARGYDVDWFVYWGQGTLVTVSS VL: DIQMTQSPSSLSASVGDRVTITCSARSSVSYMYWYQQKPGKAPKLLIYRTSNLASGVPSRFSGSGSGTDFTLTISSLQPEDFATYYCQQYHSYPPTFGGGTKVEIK sits at 0.005 s⁻¹ or higher.
Given back: label 0
